// reported concentrations at which not toxic, S. cerevisiae cytotoxicity testing for each item listed
Tested on: S. cerevisiae
Assay Method Text: in vitro
Conditions Used: Saccharomyces cerevisiae

CNC(=O)Cc1c(F)cc(Oc2nc3ccc(Cl)cc3s2)cc1F ... ≥ 100 µM
O=C(O)C(O)c1ccc(Oc2nc3ccc(Cl)cc3s2)cc1 (stereo not shown) ... ≥ 100 µM
CONC(=O)[C@@H](C)Oc1ccc(Oc2cnc3cc(Cl)ccc3n2)cc1 ... ≥ 100 µM

Query block: I have this compound here, `O=C(O)COc1ccc(Oc2nc3ccc(F)cc3s2)cc1` , and I need its recorded concentrations at which not toxic, S. cerevisiae cytotoxicity testing.
Result block: ≥ 100 µM

Query block: I have this compound here, `Nc1ccc(Oc2nc3ccc(Cl)cc3s2)cc1` , and I need its recorded concentrations at which not toxic, S. cerevisiae cytotoxicity testing.
Result block: 25 to 50 µM

Query block: I have this compound here, `COC(=O)Cn1ccc(Oc2nc3ccc(Cl)cc3s2)cc1=O` , and I need its recorded concentrations at which not toxic, S. cerevisiae cytotoxicity testing.
Result block: ≥ 100 µM

Query block: I have this compound here, `CCOC(=O)c1ccc2nc(Oc3ccc(NC(=O)NC(C)C)cc3)sc2c1` , and I need its recorded concentrations at which not toxic, S. cerevisiae cytotoxicity testing.
Result block: ≥ 100 µM

---

Test System: UniProtKB Q12809
Sequence (Q12809 whole entry): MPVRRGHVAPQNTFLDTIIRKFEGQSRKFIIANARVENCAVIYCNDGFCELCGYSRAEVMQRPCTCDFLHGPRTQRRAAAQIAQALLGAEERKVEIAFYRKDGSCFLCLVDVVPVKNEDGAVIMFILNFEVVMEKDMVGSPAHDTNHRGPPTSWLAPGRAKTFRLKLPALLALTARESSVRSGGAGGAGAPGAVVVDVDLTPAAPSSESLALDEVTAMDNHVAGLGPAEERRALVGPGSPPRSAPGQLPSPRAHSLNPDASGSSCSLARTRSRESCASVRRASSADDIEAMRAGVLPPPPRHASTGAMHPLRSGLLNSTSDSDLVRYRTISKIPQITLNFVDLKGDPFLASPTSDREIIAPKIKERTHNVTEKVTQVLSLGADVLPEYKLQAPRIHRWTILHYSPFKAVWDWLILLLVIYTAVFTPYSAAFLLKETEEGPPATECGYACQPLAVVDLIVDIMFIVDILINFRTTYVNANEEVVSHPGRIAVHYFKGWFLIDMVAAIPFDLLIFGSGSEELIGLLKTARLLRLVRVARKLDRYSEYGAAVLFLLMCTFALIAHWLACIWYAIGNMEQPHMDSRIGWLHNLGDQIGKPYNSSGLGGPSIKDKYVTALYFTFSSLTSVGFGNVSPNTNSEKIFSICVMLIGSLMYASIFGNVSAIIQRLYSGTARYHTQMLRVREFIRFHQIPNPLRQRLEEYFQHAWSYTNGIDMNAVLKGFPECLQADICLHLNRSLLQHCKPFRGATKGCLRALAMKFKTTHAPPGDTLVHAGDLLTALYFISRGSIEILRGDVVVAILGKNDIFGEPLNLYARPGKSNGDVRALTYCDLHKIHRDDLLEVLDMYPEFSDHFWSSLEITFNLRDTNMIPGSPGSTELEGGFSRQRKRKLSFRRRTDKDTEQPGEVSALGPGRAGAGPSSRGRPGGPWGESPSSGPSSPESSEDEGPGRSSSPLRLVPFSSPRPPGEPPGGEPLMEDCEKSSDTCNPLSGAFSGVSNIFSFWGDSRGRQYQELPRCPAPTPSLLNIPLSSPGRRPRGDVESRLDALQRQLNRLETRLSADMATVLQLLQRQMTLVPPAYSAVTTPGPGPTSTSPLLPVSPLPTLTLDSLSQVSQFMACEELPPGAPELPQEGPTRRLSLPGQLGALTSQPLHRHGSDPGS
Please assign not fulfilled whenever IC50 is at or above 10 µM, and fulfilled whenever it is below.

Here's what some known entries look like.
CC(C(=O)N1CCN(C)CC1)c1ccc(Oc2nc3ccc(Cl)cc3s2)cc1 (stereo not shown) [NZ-366] ... fulfilled
CC(C(=O)NCCN(C)C)c1ccc(Oc2nc3ccc(Cl)cc3s2)cc1 (stereo not shown) [NZ-516] ... fulfilled
CC(C(=O)N1CCS(=O)(=O)CC1)c1ccc(Oc2nc3ccc(Cl)cc3s2)cc1 (stereo not shown) [NZ-553] ... not fulfilled
COCCNC(=O)C(C)c1ccc(Oc2nc3ccc(Cl)cc3s2)cc1 (stereo not shown) [NZ-541] ... not fulfilled
CNC(=O)C(C)c1ccc(Oc2nc3ccc(Cl)cc3s2)cc1 (stereo not shown) [NZ-369] ... not fulfilled
CC(C(=O)NC1CC1)c1ccc(Oc2nc3ccc(Cl)cc3s2)cc1 (stereo not shown) [NZ-538] ... fulfilled

# next compound below
Query block: Strictly below 10 µM: is that where IC50 of CC(C(=O)NC1COC1)c1ccc(Oc2nc3ccc(Cl)cc3s2)cc1 (stereo not shown) [NZ-543] sits?
Result block: not fulfilled

---

Tested on: S. cerevisiae
Assay Method Text: in vitro
Conditions Used: Saccharomyces cerevisiae
// reported concentrations at which not toxic, S. cerevisiae cytotoxicity testing for each item listed

Query block: I have this compound here, CC(C(=O)NCC(O)CO)c1ccc(Oc2cnc3cc(Cl)ccc3n2)cc1 (centres unmarked) , and I need its recorded concentrations at which not toxic, S. cerevisiae cytotoxicity testing.
Result block: ≥ 100 µM

Query block: I have this compound here, CONC(=O)C(OC)c1ccc(Oc2nc3ccc(Cl)cc3s2)cc1 (centres unmarked) , and I need its recorded concentrations at which not toxic, S. cerevisiae cytotoxicity testing.
Result block: ≥ 100 µM

---

Assay Method Text: MCLint in vitro intrinsic clearance, mouse (MLM)
Type: in vitro ADME
Value Kind: MCLint (mL/min/g liver), MLM

CC(C(=O)NC1CCOC1)c1ccc(Oc2nc3ccc(Cl)cc3s2)cc1 (centres unmarked) ... MLM = 3.3 mL/min/g liver
CNC(=O)C(C)c1ccc(Oc2nc3ccc(Cl)cc3s2)cc1 (centres unmarked) ... MLM = 3.3 mL/min/g liver

Where these numbers come from: patent US11083717B2
